Data origin: PubChem BioAssay (NCI)

# assay overview: NCI Yeast Anticancer Drug Screen. Data for the bub3 strain (AID 167)
# condition: S. cerevisiae bub3 mutant strain, at 5.0 µM (retest, dose inferred, filed as 0.5)
This is part of a sample that, as a whole, favours compounds with a hit. Of some 79,000 tested, about 15% had one in any assay. Calls of active or inactive are those of the source. Cut-off read from the data, not from the text of the source: active = growth inhibition above about 70%; inactive = the rest.
I would appreciate it if you answered using one of these outcomes: TRUE = active, FALSE = inactive

Observe how each entry below is paired with its result.
CN(C)CCNC(=O)c1cccc2ccc(-c3ccc(-c4ccccc4)cc3)nc12
FALSE
O=C(c1ccccc1)C1C(c2ccccc2)OP(c2ccccc2)(c2ccccc2)(c2ccccc2)C1c1ccccc1 (stereo not given)
TRUE
CC(=N/NC(=S)NCC(C)C)/C(C)=N\Nc1ccc(Cl)cc1
FALSE
C/C(=N\NC(N)=S)c1ccc(Oc2ccccc2)cc1
FALSE

**Query** Outcome logged for C[C@]12CC[C@H](O)CC1=CC[C@@H]1C2CC[C@]2(C)NC(=O)CCC12 (stereo not given in full) in this assay:
**Result** FALSE
